- tested target: Cyclin-dependent kinase 2/cyclin A (Homo sapiens, UniProt P24941)
- protocol: Inhibition of CDK2/cyclin A expressed in baculovirus infected insect Sf21 cells using [gamma-P32]ATP and histone H1 as substrate after 10 mins by radiometric assay
reported property: IC50 (µM)

According to the records, this compound `Cc1c(C#N)c(NCCO)nc2ncnc(N)c12` displays IC50 of 29.5

According to the records, this compound `N#Cc1cc2c(N)ncnc2nc1Nc1ccc(S(N)(=O)=O)cc1` displays IC50 of 0.3

According to the records, this compound `Nc1scc2c1c(NCCO)nc1ncnc(N)c12` displays IC50 of 0.5

[A] N#Cc1cc2c(N)ncnc2nc1NCCO
[B] Nc1scc2c1c(Nc1ccc(S(N)(=O)=O)cc1)nc1nc(NCCO)nc(N)c12
[C] Cc1c(C#N)c(NCCO)nc2nc(NCCO)nc(N)c12
[D] Nc1scc2c1c(NCCO)nc1nc(NCCO)nc(N)c12
Reorder the items by IC50, least to greatest. Answer by writing out the labels in the requested order.
D, C, B, A
(D: 0.09 µM, C: 3.8 µM, B: 8.1 µM, A: 29.5 µM)

[I] N#Cc1cc2c(N)nc(NCCO)nc2nc1NCCO
[II] Nc1scc2c1c(Nc1ccc(S(N)(=O)=O)cc1)nc1ncnc(N)c12
Among I and II , which shows a numerically higher IC50 result? API: response body contains the label of the selected item.
II
(II: 36.3 µM, I: 6.3 µM)

[A] Cc1c(C#N)c(Nc2ccc(S(N)(=O)=O)cc2)nc2ncnc(N)c12
[B] Cc1c(C#N)c(Nc2ccc(S(N)(=O)=O)cc2)nc2nc(NCCO)nc(N)c12
[C] N#Cc1cc2c(N)nc(NCCO)nc2nc1Nc1ccc(S(N)(=O)=O)cc1
Reorder the items by IC50, least to greatest. Answer by writing out the labels in the requested order.
C, B, A
(C: 0.9 µM, B: 3.1 µM, A: 10 µM)
